Entry source: PubChem BioAssay (NCI)

# key: entry, value: growth inhibition
Assay: NCI Yeast Anticancer Drug Screen. Data for the cln2 rad14 strain (AID 165);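 also: 0% = growth equal to vehicle treated cultures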
Details: S. cerevisiae cln2 rad14 strain, at 50.0 µM, hits give high values
About 79,000 compounds went through this panel and 15% of them were active in at least one assay; those are over-represented in the sample as a whole.
Field format: number, assumed %, no unit text.

[[record]]
molecule = "COc1cc(NS(C)(=O)=O)ccc1Nc1c2ccccc2nc2c1[nH]c1ccc(NC3OC(CO)C(O)C(O)C3O)cc12 (configuration not stated)"
property_label = "growth inhibition"
observed = 0.2

[[record]]
molecule = "Cn1c(=O)c2cc(O)cnc2n(C)c1=O"
property_label = "growth inhibition"
observed = -14.7

[[record]]
molecule = "O=c1[nH]c2nc3ccccc3c(=O)n2/c1=C/c1ccco1"
property_label = "growth inhibition"
observed = 20.2

[[record]]
molecule = "CC/C(=N/NC(=O)c1ccccc1)c1ccccc1"
property_label = "growth inhibition"
observed = -19.4

[[record]]
molecule = "Cn1ncc2c(=O)[nH]c(=S)[nH]c21"
property_label = "growth inhibition"
observed = -32.1

[[record]]
molecule = "O=C1OC(/C=C/c2ccccc2)=NC/1=C\\C=C\\c1ccccc1"
property_label = "growth inhibition"
observed = 14.2

[[record]]
molecule = "Nc1ccc(C(=O)O)cc1[N+](=O)[O-]"
property_label = "growth inhibition"
observed = -14.6

[[record]]
molecule = "Cc1ccc2c(c1)C(=O)c1ccccc1C2=O"
property_label = "growth inhibition"
observed = 11.9


Lookup: Note growth inhibition for the molecule shown: "O=C[C@H](O)CO"
Found: -1.8

Lookup: Give the value of growth inhibition reported for the following: "C/C=C\c1ccc(OCCOC(C)=O)c(OC)c1"
Found: -28.2

Lookup: For the molecule O=[N+]([O-])c1ccc(Cc2ncnc3c2ncn3C2OC(CO)C(O)C2O)cc1 (configuration not stated) , give its reported growth inhibition.
Found: -0.95

Lookup: Supply recorded growth inhibition for "C=CCc1nc2c([nH]1)c(=O)n(C)c(=O)n2C" here.
Found: 11.7

----------
Assay: NCI Yeast Anticancer Drug Screen. Data for the cln2 rad14 strain (AID 165);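 also: 0% = growth equal to vehicle treated cultures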
Conditions: S. cerevisiae cln2 rad14 strain, at 50.0 µM
Method: Growth inhibition of yeast strains with defined genetic alterations is measured as a screen for potential anti-cancer activity. Selected strains with alterations in DNA damage repair or cell cycle control were exposed to compounds and growth inhibition was measured relative to vehicle treated controls. The strain used in this assay is cln2 rad14
The panel holds about 79,000 compounds, 15% with a hit somewhere; the sample as a whole holds those more often. Activity calls are given as the source filed them. Rule as the data show it: active = growth inhibition above about 70%; inactive = the rest.
# valid calls are y = active, n = inactive; nothing else

Check out these entries, answers already filled in.
[[record]]
compound = "NC(=O)c1ccccc1NC(=O)C(=O)C(C(=O)c1ccc2ccccc2c1)C1OC(=O)c2ccccc21 (centres undefined)"
cat = "n"

[[record]]
compound = "Cn1c(=O)c2[nH]c(SCc3cccnc3)nc2n(C)c1=O"
cat = "n"

[[record]]
compound = "Cc1cccc(C)c1NN"
cat = "n"

[[record]]
compound = "O=C(Nc1ccccc1)c1nccc2ccccc12"
cat = "n"


Now look at this entry.
Lookup: Hello, I am checking results. What call was entered for "O=C1CCc2nc(=O)c3c4ccccc4ccc3n21" ?
Found: n

----------
Test: NCI Yeast Anticancer Drug Screen. Data for the bub3 strain (AID 167)
Conditions: S. cerevisiae bub3 mutant strain, at 50.0 µM, hits give high values
About 79,000 compounds went through this panel and 15% of them were active in at least one assay; those are over-represented in the sample as a whole.
Property Label: growth inhibition (%)
Your answer should be a plain number; it is taken to be in %.

Lookup: Give growth inhibition for the following compound: "COc1ccc(OC)c(NCC(=O)Nn2cnc3ccc(S(=O)(=O)Nc4cc(OC)ccc4OC)cc3c2=O)c1"
Found: 50.8

Lookup: Please look at this compound and report its growth inhibition: "COC(=O)/C=C/CCCC1CCCCC1"
Found: -14.9
